- test.description: Apparent volume of distribution in Sprague-Dawley rat at 2 mg/kg, iv after 24 hrs by LC/MS/MS analysis
- Type: ADME, organism-based
- Design: dose 2 mg/kg, route intravenous
- condition.label: in vivo, read-out: Vz
attribute.measured: Vd (L/kg)

compound="C/C=C/C[C@@H](C)[C@@H](O)[C@H]1C(=O)N[C@@H](CC)C(=O)N(C)C(SCCN(C)C)C(=O)N(C)[C@@H](CC(C)(C)O)C(=O)N[C@@H](C(C)C)C(=O)N(C)[C@@H](CC(C)C)C(=O)N[C@@H](C)C(=O)N[C@H](C)C(=O)N(C)[C@@H](CC(C)C)C(=O)N(C)[C@@H](CC(C)C)C(=O)N(C)[C@@H](C(C)C)C(=O)N1C (single isomer, unassigned) [SCY 635]" observed=3.37

---

- test.description: Cmax in Sprague-Dawley rat at 10 mg/kg, po after 24 hrs by LC/MS/MS analysis
- Format: ADME, organism-based
- Parameters: dose 10 mg/kg, route oral
- condition.label: in vivo
attribute.measured: Cmax (ng/mL)

molecule="C/C=C/C[C@@H](C)[C@@H](O)[C@H]1C(=O)N[C@@H](CC)C(=O)N(C)C(SCCN(C)C)C(=O)N(C)[C@@H](CC(C)(C)O)C(=O)N[C@@H](C(C)C)C(=O)N(C)[C@@H](CC(C)C)C(=O)N[C@@H](C)C(=O)N[C@H](C)C(=O)N(C)[C@@H](CC(C)C)C(=O)N(C)[C@@H](CC(C)C)C(=O)N(C)[C@@H](C(C)C)C(=O)N1C (single isomer, unassigned)" observed=1400

---

- test.description: AUC (2 to 24 hrs) in Sprague-Dawley rat whole blood at 10 mg/kg, iv by LC/MS/MS analysis
- Assay type: ADME, organism-based
- Parameters: time 2-24 hr, dose 10 mg/kg, route intravenous
attribute.measured: AUC(0-t) (ng·h/mL)

molecule="C/C=C/C[C@@H](C)[C@@H](O)[C@H]1C(=O)N[C@@H](CC)C(=O)N(C)C(SCCN(C)C)C(=O)N(C)[C@@H](CC(C)(C)O)C(=O)N[C@@H](C(C)C)C(=O)N(C)[C@@H](CC(C)C)C(=O)N[C@@H](C)C(=O)N[C@H](C)C(=O)N(C)[C@@H](CC(C)C)C(=O)N(C)[C@@H](CC(C)C)C(=O)N(C)[C@@H](C(C)C)C(=O)N1C (single isomer, unassigned) [SCY 635]" attribute_measured=AUC(0-t) observed=30500

---

- test.description: Apparent volume of distribution in Sprague-Dawley rat at 5 mg/kg, iv after 24 hrs by LC/MS/MS analysis
- Type: ADME, organism-based
- Parameters: dose 5 mg/kg, route intravenous
- condition.label: in vivo, read-out: Vz
attribute.measured: Vd (L/kg)

compound="C/C=C/C[C@@H](C)[C@@H](O)[C@H]1C(=O)N[C@@H](CC)C(=O)N(C)C(SCCN(C)C)C(=O)N(C)[C@@H](CC(C)(C)O)C(=O)N[C@@H](C(C)C)C(=O)N(C)[C@@H](CC(C)C)C(=O)N[C@@H](C)C(=O)N[C@H](C)C(=O)N(C)[C@@H](CC(C)C)C(=O)N(C)[C@@H](CC(C)C)C(=O)N(C)[C@@H](C(C)C)C(=O)N1C (single isomer, unassigned)" observed=4.3

---

- test.description: Apparent elimination half life in monkey at 5 mg/kg, po after 24 hrs by LC/MS/MS analysis
- Type: ADME, organism-based, Macaca mulatta
- Parameters: dose 5 mg/kg, route oral
- condition.label: rhesus monkey, in vivo
attribute.measured: half-life (h)

compound="C/C=C/C[C@@H](C)[C@@H](O)[C@H]1C(=O)N[C@@H](CC)C(=O)N(C)C(SCCN(C)C)C(=O)N(C)[C@@H](CC(C)(C)O)C(=O)N[C@@H](C(C)C)C(=O)N(C)[C@@H](CC(C)C)C(=O)N[C@@H](C)C(=O)N[C@H](C)C(=O)N(C)[C@@H](CC(C)C)C(=O)N(C)[C@@H](CC(C)C)C(=O)N(C)[C@@H](C(C)C)C(=O)N1C (single isomer, unassigned)" observed=24.6

---

- target: CYP1A2 (Homo sapiens, UniProt P05177)
- Sequence (P05177 whole entry): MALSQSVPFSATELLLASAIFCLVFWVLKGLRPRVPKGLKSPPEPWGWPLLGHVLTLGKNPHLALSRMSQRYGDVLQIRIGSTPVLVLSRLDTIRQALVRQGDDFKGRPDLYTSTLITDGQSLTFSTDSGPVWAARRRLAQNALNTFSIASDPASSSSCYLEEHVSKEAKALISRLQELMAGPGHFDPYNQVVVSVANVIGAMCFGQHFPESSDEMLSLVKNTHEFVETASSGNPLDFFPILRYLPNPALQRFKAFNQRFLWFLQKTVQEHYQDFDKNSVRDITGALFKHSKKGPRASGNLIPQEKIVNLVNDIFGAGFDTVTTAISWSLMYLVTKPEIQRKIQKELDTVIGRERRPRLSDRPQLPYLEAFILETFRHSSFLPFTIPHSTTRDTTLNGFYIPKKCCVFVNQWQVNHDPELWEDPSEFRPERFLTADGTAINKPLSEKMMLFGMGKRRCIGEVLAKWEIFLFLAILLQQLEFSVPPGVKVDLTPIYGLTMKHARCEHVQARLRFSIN
- test.description: Induction of CYP1A2 in human hepatocytes at 2 uM after 72 hrs relative to control
- Format: ADME, cell-based, Hepatocyte
- condition.label: read-out: FC
attribute.measured: fold induction at 72 h, 2 µM

compound=Cc1ccc2cc3c(ccc4ccccc43)c3c2c1CC3 attribute_measured="fold induction at 72 h, 2 µM" observed=21.2

---

- test.description: AUC (2 to 24 hrs) in Sprague-Dawley rat liver at 30 mg/kg, po by LC/MS/MS analysis
- Assay type: ADME, organism-based
- Set-up: time upper 24 hr, time lower 2 hr, dose 30 mg/kg, route oral
attribute.measured: AUC(0-t) (µg·h/mL)

molecule="C/C=C/C[C@@H](C)[C@@H](O)[C@H]1C(=O)N[C@@H](CC)C(=O)N(C)C(SCCN(C)C)C(=O)N(C)[C@@H](CC(C)(C)O)C(=O)N[C@@H](C(C)C)C(=O)N(C)[C@@H](CC(C)C)C(=O)N[C@@H](C)C(=O)N[C@H](C)C(=O)N(C)[C@@H](CC(C)C)C(=O)N(C)[C@@H](CC(C)C)C(=O)N(C)[C@@H](C(C)C)C(=O)N1C (single isomer, unassigned)" attribute_measured=AUC(0-t) observed=141

---

- Tested on: Hepatocyte
- test.description: Cellular uptake in human hepatocytes assessed per mg of cellular protein association with nonparenchymal fraction at 0.378 uM after 1 hr by LC/MS/MS analysis
- Format: ADME, cell-based
attribute.measured: Drug uptake (ng/mg)

compound="C/C=C/C[C@@H](C)[C@@H](O)[C@H]1C(=O)N[C@@H](CC)C(=O)N(C)C(SCCN(C)C)C(=O)N(C)[C@@H](CC(C)(C)O)C(=O)N[C@@H](C(C)C)C(=O)N(C)[C@@H](CC(C)C)C(=O)N[C@@H](C)C(=O)N[C@H](C)C(=O)N(C)[C@@H](CC(C)C)C(=O)N(C)[C@@H](CC(C)C)C(=O)N(C)[C@@H](C(C)C)C(=O)N1C (single isomer, unassigned)" target=Hepatocyte attribute_measured="Drug uptake" observed=0.55

---

- test.description: Apparent elimination half life in Sprague-Dawley rat at 5 mg/kg, iv by LC/MS/MS analysis
- Type: ADME, organism-based
- Parameters: dose 5 mg/kg, route intravenous
- condition.label: in vivo
attribute.measured: half-life (h)

compound="C/C=C/C[C@@H](C)[C@@H](O)[C@H]1C(=O)N[C@@H](CC)C(=O)N(C)C(SCCN(C)C)C(=O)N(C)[C@@H](CC(C)(C)O)C(=O)N[C@@H](C(C)C)C(=O)N(C)[C@@H](CC(C)C)C(=O)N[C@@H](C)C(=O)N[C@H](C)C(=O)N(C)[C@@H](CC(C)C)C(=O)N(C)[C@@H](CC(C)C)C(=O)N(C)[C@@H](C(C)C)C(=O)N1C (single isomer, unassigned)" observed=22.2

---

- test.description: Tmax in Sprague-Dawley rat at 20 mg/kg, po by LC/MS/MS analysis
- Type: ADME, organism-based
- Parameters: dose 20 mg/kg, route oral
- condition.label: in vivo
attribute.measured: Tmax (h)

molecule="C/C=C/C[C@@H](C)[C@@H](O)[C@H]1C(=O)N[C@@H](CC)C(=O)N(C)C(SCCN(C)C)C(=O)N(C)[C@@H](CC(C)(C)O)C(=O)N[C@@H](C(C)C)C(=O)N(C)[C@@H](CC(C)C)C(=O)N[C@@H](C)C(=O)N[C@H](C)C(=O)N(C)[C@@H](CC(C)C)C(=O)N(C)[C@@H](CC(C)C)C(=O)N(C)[C@@H](C(C)C)C(=O)N1C (single isomer, unassigned)" observed=4

---

- test.description: Cmax in Sprague-Dawley rat whole blood at 10 mg/kg, iv by LC/MS/MS analysis
- Format: ADME, organism-based
- Set-up: dose 10 mg/kg, route intravenous
attribute.measured: Cmax

compound="C/C=C/C[C@@H](C)[C@@H](O)[C@H]1C(=O)N[C@@H](CC)C(=O)N(C)C(SCCN(C)C)C(=O)N(C)[C@@H](CC(C)(C)O)C(=O)N[C@@H](C(C)C)C(=O)N(C)[C@@H](CC(C)C)C(=O)N[C@@H](C)C(=O)N[C@H](C)C(=O)N(C)[C@@H](CC(C)C)C(=O)N(C)[C@@H](CC(C)C)C(=O)N(C)[C@@H](C(C)C)C(=O)N1C (single isomer, unassigned)" attribute_measured=Cmax observed="3360 ng/mL"

---

- test.description: AUC (0 to infinity) in monkey at 7.5 mg/kg, po after 24 hrs by LC/MS/MS analysis
- Format: ADME, organism-based, Macaca mulatta
- Design: dose 7.5 mg/kg, route oral, time infinity
- condition.label: rhesus monkey, plasma
attribute.measured: AUC(0-inf) (µg·h/mL)

molecule="C/C=C/C[C@@H](C)[C@@H](O)[C@H]1C(=O)N[C@@H](CC)C(=O)N(C)C(SCCN(C)C)C(=O)N(C)[C@@H](CC(C)(C)O)C(=O)N[C@@H](C(C)C)C(=O)N(C)[C@@H](CC(C)C)C(=O)N[C@@H](C)C(=O)N[C@H](C)C(=O)N(C)[C@@H](CC(C)C)C(=O)N(C)[C@@H](CC(C)C)C(=O)N(C)[C@@H](C(C)C)C(=O)N1C (single isomer, unassigned)" observed=42
